# TESTED SYSTEM: Shiga toxin 2 (Escherichia coli O157:H7) (UniProt P09385+P09386)
# ASSAY REMARKS: E. coli 0.157:H7 Shiga Toxin SOP - stx2 screening assay
# Assay type: functional
# Design: scale not given: direction of the effect not stated beside the values
# DETAILS: 30 µM
OUTCOME MEASURE: Percent Effect (%)
Entry rule: numbers only, all in %.

Query CC(Cn1cccn1)NC(=O)NCCc1ccc(Cl)s1 (centres undefined) on Shiga toxin 2 (Escherichia coli O157:H7) (UniProt P09385+P09386); Percent Effect returned: -19.2

Noted Percent Effect for Cc1ccc(C)c(CNC(=O)NC(C)(C(=O)O)c2ccco2)c1 (centres undefined) , tested on Shiga toxin 2 (Escherichia coli O157:H7) (UniProt P09385+P09386): 17

Sample COCc1nc(C(=O)N2CCCC2c2c(C)nn(C)c2C)cs1 (centres undefined) , system: Shiga toxin 2 (Escherichia coli O157:H7) (UniProt P09385+P09386). Its Percent Effect is -13.6

Reported Shiga toxin 2 (Escherichia coli O157:H7) (UniProt P09385+P09386) Percent Effect for item `CN(C)C(=O)COC[C@]12COC[C@H]1CN(Cc1ccoc1)C2` was -7.04

Here CN(C)CC1CSCCCN1C(=O)c1ccc(=O)[nH]c1 (centres undefined) was tested on Shiga toxin 2 (Escherichia coli O157:H7) (UniProt P09385+P09386), and its Percent Effect came to 3.65

The observed Percent Effect for CCc1nc(CN(C)C2CCN(CCNS(=O)(=O)CC)C2)no1 (centres undefined) when tested with Shiga toxin 2 (Escherichia coli O157:H7) (UniProt P09385+P09386) stands at -60.5

Shiga toxin 2 (Escherichia coli O157:H7) (UniProt P09385+P09386) assay, molecule Cc1nc(C)n(CC2CCCCN2CCS(C)(=O)=O)n1 (centres undefined) , recorded Percent Effect = -15.8

`CN(C)c1cc(C(=O)N2CCCN(Cc3cscn3)CC2)ccn1` tested on Shiga toxin 2 (Escherichia coli O157:H7) (UniProt P09385+P09386) gave Percent Effect: -13.1

For the molecule COc1c(C2CCCN2C(=O)c2c[nH]c3ncccc23)c(C)nn1C (centres undefined) , the measured Percent Effect on Shiga toxin 2 (Escherichia coli O157:H7) (UniProt P09385+P09386) was -20.6

Here `CCCn1ccc2ccc(NC(=O)N(C)CCOC)cc21` was tested on Shiga toxin 2 (Escherichia coli O157:H7) (UniProt P09385+P09386), and its Percent Effect came to -13.1

Hey, Shiga toxin 2 (Escherichia coli O157:H7) (UniProt P09385+P09386) data for `CN(C)CC(=O)N1C[C@H]2CCC[C@@]2(COc2ccccn2)C1` : Percent Effect came out at 13.5

Hey, Shiga toxin 2 (Escherichia coli O157:H7) (UniProt P09385+P09386) data for Cn1cc(N2CC3(CCN(S(=O)(=O)C4CC4)C3)CC2=O)cn1 (centres undefined) : Percent Effect came out at -17.6

Record `CCn1cnnc1C1CCN(C(=O)c2cc3c(s2)CCC3)CC1` / Shiga toxin 2 (Escherichia coli O157:H7) (UniProt P09385+P09386), Percent Effect recorded as -11.1

Entry COc1c(CNC2CCCOc3ccccc32)c(C)nn1C (centres undefined) ; assay system Shiga toxin 2 (Escherichia coli O157:H7) (UniProt P09385+P09386); Percent Effect recorded at -2.26

Fill in: Shiga toxin 2 (Escherichia coli O157:H7) (UniProt P09385+P09386) Percent Effect for CN1CCCC(c2cccc(Cc3ccccc3Cl)n2)C1 (centres undefined) = 6.38

Readout Percent Effect for `CCn1cc(CN2CCC(c3nnc(CN(C)C)n3CC)CC2)cn1` , test system Shiga toxin 2 (Escherichia coli O157:H7) (UniProt P09385+P09386), was -57.2

Lab entry: Shiga toxin 2 (Escherichia coli O157:H7) (UniProt P09385+P09386) assay, molecule `CNC(=O)CCCNCc1c(C(C)C)nn(C)c1N(C)C` , Percent Effect = 3.71

Percent Effect on Shiga toxin 2 (Escherichia coli O157:H7) (UniProt P09385+P09386) for CNS(=O)(=O)c1ccc(C(=O)N2CCCC(n3cccn3)C2)cc1 (centres undefined) is 2.6

The molecule `CC(=O)Nc1nc(C2CCN(C(C)=O)CC2)cs1` on Shiga toxin 2 (Escherichia coli O157:H7) (UniProt P09385+P09386): Percent Effect was -0.268

Record `Cc1noc(C)c1C(=O)NCc1ccnc(OCC(F)(F)F)c1` / Shiga toxin 2 (Escherichia coli O157:H7) (UniProt P09385+P09386), Percent Effect recorded as 10.8

Item O=C1CC(NCc2ccncc2)CN1Cc1cccc(F)c1 (centres undefined) ; assay system Shiga toxin 2 (Escherichia coli O157:H7) (UniProt P09385+P09386); Percent Effect reported as -1.08

The recorded Percent Effect with Shiga toxin 2 (Escherichia coli O157:H7) (UniProt P09385+P09386) for `CC(C)CN1Cc2c(C(=O)N(C)C)ncn2-c2ccccc2S1(=O)=O` was 4.89

The recorded Percent Effect with Shiga toxin 2 (Escherichia coli O157:H7) (UniProt P09385+P09386) for Cc1nc(C)n(CC2CCCN(CCCOc3ccccc3)C2)n1 (centres undefined) was 8.48

Readout Percent Effect for Cc1nc(C)n(C2CCCN(C(=O)c3sccc3C3CC3)C2)n1 (centres undefined) , test system Shiga toxin 2 (Escherichia coli O157:H7) (UniProt P09385+P09386), was 10.4
